Tested on: HIV-1 isolate RU570
Assay: Replication competent virus, PBMC target cells
Type: cell-based
Details: isolate RU570, envelope subtype G

substance | IC50 [nM]
enfuvirtide [FUZEON ®] | 37

###

System: HIV HXB2 strain pseudovirions
Assay: Pseudovirion viral infectivity (entry) assay, HXB2
Format: cell-based, HIV-1
Conditions: Table 2; pseudovirion entry
Procedure: This study included the use of the HIV HXB2 strain and the HIV JRFL strain. Viral infectivity was measured essentially as previously described (Hamburger 2005) with several modifications. 8 μg/mL DEAE-Dextran was used as a fusion enhancer in all assays. Media was changed 22-26 h following infection. […] Fits were weighted by the absolute s.e.m. from quadruplicate points with the minimum allowable error set to 1%. […]
Binarize IC50 at 40 nM; below is satisfied, at or above is not satisfied.

substance | assigned-label
KGACDYPEWQWLCAA [PIE7] | not satisfied
enfuvirtide [FUZEON ®] | satisfied
GACDYPEWQWLCAAGKK [PIE7-GKK] | not satisfied
HACDYPEWQWLCELGK [PIE15] | not satisfied
HPCDYPEWQWLCELGK [PIE12] | satisfied
GACDYPEWQWLCAAGK [PIE7-GK] | not satisfied
HPCDYPEWQWLCRLGK [PIE14] | satisfied

###

System: HIV-1 isolate G3
Experiment: Replication competent virus, PBMC target cells
Format: cell-based
Settings: isolate G3, envelope subtype G
pIC50: −log10 of the molar value.
assay-readout: pIC50

substance | meas-value
enfuvirtide [FUZEON ®] | 7.63

###

Tested on: HIV-1 isolate 92BR025
Assay: Replication competent virus, PBMC target cells
Assay type: cell-based
Details: isolate 92BR025, envelope subtype C
pIC50: −log10 of the molar value.
assay-readout: pIC50

substance | meas-value
enfuvirtide [FUZEON ®] | 6.52

###

System: HIV-1 isolate IIIB
Experiment: Replication competent virus, PBMC target cells
Format: cell-based
Conditions: envelope subtype B
pIC50: −log10 of the molar value.

substance | pIC50
enfuvirtide [FUZEON ®] | 7.55

###

Tested on: HIV-1 isolate JR-FL
Experiment: Replication competent virus, PBMC target cells
Assay type: cell-based
Details: envelope subtype B

substance | IC50, nM
enfuvirtide [FUZEON ®] | 1.65

###

Test system: Q577R HXB2
Test: Pseudovirion entry assay, resistant strain Q577R
Type: cell-based, HIV-1
Conditions: Table 4; resistance mutation discovered against PIE12-trimer
assay-readout: IC50 (nM)

record-sequence | measurement-target | unit-annotation | meas-value
HPCDYPEWQWLCELGK [PIE12] | Q577R HXB2 | nM | 10200
